measurement-target: T1, glucocorticoid-induced tumor necrosis factor receptor (GITR) (human, UniProt Q9Y5U5 26-241)
T1 construct: whole, on cells; also called GITR expressing 293T cells
T1 sequence (looked up): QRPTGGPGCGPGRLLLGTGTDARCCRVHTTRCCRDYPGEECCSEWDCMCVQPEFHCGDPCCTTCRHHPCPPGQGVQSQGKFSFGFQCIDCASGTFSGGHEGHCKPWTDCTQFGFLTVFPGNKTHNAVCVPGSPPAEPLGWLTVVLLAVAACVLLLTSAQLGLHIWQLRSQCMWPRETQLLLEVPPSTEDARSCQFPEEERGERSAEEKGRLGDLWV
method-notes: flow cytometry on GITR-expressing 293T cells, FITC anti-human Fc detection

| binder | binding result |
| --- | --- |
| mAb #13-169 (antibody, V domains shown) VH: EVQLVQSGAEVKRPGASLKVSCKASGYTFTSHYIHWVRQAPGQGLEWMGWINTGNGDTRYSQRFQGRVTVTRDTSASTVYMELSSLRSEDTAVYYCARESSSSWFVAFDVWGQGTTVTVSS VL: QPVLTQPPSVSLAPGQTARITCSEKNIRSKRVHWYQQKPGQAPVLVMYSDNGRRSGIPDRFSGSNSGNTATLTITRVEAGDEGDFYCQVWDPITDQVVFGGGTKLTVLG | binds |
| mAb #14-182 (antibody, V domains shown) VH: QVQLVQSGAEVKQPGSSVKVSCKASGYTFTGYYMHWVRQAPGEGLEWLGWINPHSGGTNYAQKFQGRVTITADKSTSTAYMELSSLRSEDTAVYYCAREIVVVTAPAAAAMDVWGQGTLVTVSS VL: QSVLTQPPSASGSPGQSVTISCTGSSSDVAIYDRVSWYQQPPGTAPKLILYDVHDRPSGVPDRFSGSKSGNTASLTISGLQAEDEADYYCSSYTTSGTFVFGSGTKVTVLG | binds |
| mAb 3-167 (antibody, V domains shown) VH: EVQLVQSGSELKKPGASVKVSCKASGYTFTGYYMHWVRQAPGQGLEWMGWINPNSGGTNYAQKFQGRVTVTTDTSTSTAYMELRSLRSDDTAVYYCAREGVHSDAFDVWGQGTTVTVSS VL: ETTLTQSPATLSVSPGERATLSCRASQSVYTNLAWYQQKPGQAPSLLIYGASSRATGIPDRFSGSGSGTDFTLTISRLEPEDFAVYYCQQYGSSHFTFGPGTKVDIK | binds |
| mAb #7-192 (antibody, V domains shown) VH: EVQLVESGAEVKKPGASVKVSCKTSGYTFTDHYIHWVRQAPGQGLEWMGWINPSSGGTEYAQKFQGRVTMTRDTPISTAYMDLSGLRSDDTAVYYCARETIGGWNALDVWGQGTLVTVSS VL: MPVLTQPPSVSVAPGQTARITCGGHKIGTKSVHWYQQKPGQAPVLVVYDDRDRPSGIPERFSGSNSGGTATLTISRVEAGDEADYYCQVWDSNSDHVVFGGGTKLTVLS | binds |
